Where do these numbers come from? They come from the supplement of paper PMC11417369.

# System: PfAP2-HC AP2 domain (GST-tagged)
# assay_procedure: gcPBM binding intensity (ln(normalized median fluorescence intensity)); higher = stronger DNA binding
In all, about 25,000 sequences were measured (“ln(normalized median fluorescence intensity)”: median about 9.7, highest 2% from about 11 on). This is one part of a sample in which the highest values are shown more often than they occur.
List of gcPBM binding intensity (ln) values.
value_kind: gcPBM binding intensity (ln)

1) ATTTACATAAATTGCATATATCGATGTAAATAAATA [CACACA_negctrl_site1150]    9.5
2) AACTTGTATATATACACACACACACTATCTTTTTTT [CACACA_site8601]    10.9
3) ATAATGAAAAGGAACATACACACCCCATATAAATAT [CACACA_site3442]    10.3
4) AAACAAAAAAAATAAGCACACATATATATATATATA [CACACA_site8173]    9.7
5) GATATGTACTAATACACACACATATATATATATATA [CACACA_site1022]    10.2
6) TAACATATTATATATACATGCATACGTGAACTAATC [TGCATGCA_site888]    9.72
7) AATGGCAAAATAGGCACACACACATATACAGATATA [CACACA_site4726]    10.6
8) CCAACAAAAATAAGCACACACAAATATACATACATA [CACACA_site3606]    11.1
9) CATACATACAGACACACACACATATAAATACATACA [CACACA_site6533]    10.3
10) ATATTATACATTTATACACACATAAAAAGACAAAAA [CACACA_site3565]    9.92
11) AAAAAAAAAAGACACACACACATATTTATTTATATA [CACACA_site6484]    10.4
12) ATTTTATTTTTTAAAGGTACAGTTACAGCTTATATA [XGTACX_site7513]    9.51
13) TATACAGACAGACACACACACATATATAAATATGTA [CACACA_site6912]    10.6
14) AACAAAATAAGACACACACACAAATGTACCTATATA [CACACA_site7189]    10.4
15) ACAAAAAAAATAAGCACACATATATATATATATATA [CACACA_site816]    9.91
16) AACTTGTATTTATACACACACACACTAGCTTTTTTT [CACACA_site5132]    10.4
17) GTGATTAATATATACACACATACATATATATATATA [CACACA_site2817]    9.81
18) AATATAAGCAAATACACACACACATATATATATATA [CACACA_site3805]    10.7
19) ATACAACAAAAATAAGCACACACAAATATACATACA [CACACA_site9201]    10.8

###

Listing of recorded gcPBM binding intensity (ln) by entry.
# Test system: PfAP2-HC AP2 domain (GST-tagged)
# assay_procedure: gcPBM binding intensity (ln(normalized median fluorescence intensity)); higher = stronger DNA binding
Over roughly 25,000 sequences, “ln(normalized median fluorescence intensity)” has its median near 9.7; the highest 2% begin near 11. The full list was thinned out, with the highest values kept by preference.
value_kind: gcPBM binding intensity (ln)

1. TTTTTTTTTTTGGTTACACACATTTGTATATTCTCA [CACACA_site134]    9.89
2. CAAGAAACAGTGATACGTACACATATATATATATAT [XGTACX_site3229]    9.91
3. TATATATATATATATGCATGTACATATATTTGTTAT [TGCATGCA_site379]    10.4
4. ATTGTCAAAACACGCACACACATATACATAATAACA [CACACA_site1742]    11.1
5. AATAAATTGGTATGTTGTACAAAGTAACCATCGATT [XGTACX_site2823]    9.75
6. ATATATATTTATATATGTACATATTTTTGTGTATTT [XGTACX_site1183]    9.93
7. ATGCATATATTTATGTGTACATATATTTGTAGGGGG [XGTACX_site6063]    11.2
8. AAAATTCATAAATACACACACGCACATATATATATA [CACACA_site4227]    10.2
9. TACATACATACATACACACACACATATATATATATA [CACACA_site42]    10.2
